For each record, write down the corresponding EC50 (read off the curve).
test.target: T1, cynomolgus monkey SIRPγ on CHO cells (cynomolgus monkey, UniProt Q9P1W8 29-386 (human entry))
T1 construct: also called Cyno SIRPγ CHO
T1 chain: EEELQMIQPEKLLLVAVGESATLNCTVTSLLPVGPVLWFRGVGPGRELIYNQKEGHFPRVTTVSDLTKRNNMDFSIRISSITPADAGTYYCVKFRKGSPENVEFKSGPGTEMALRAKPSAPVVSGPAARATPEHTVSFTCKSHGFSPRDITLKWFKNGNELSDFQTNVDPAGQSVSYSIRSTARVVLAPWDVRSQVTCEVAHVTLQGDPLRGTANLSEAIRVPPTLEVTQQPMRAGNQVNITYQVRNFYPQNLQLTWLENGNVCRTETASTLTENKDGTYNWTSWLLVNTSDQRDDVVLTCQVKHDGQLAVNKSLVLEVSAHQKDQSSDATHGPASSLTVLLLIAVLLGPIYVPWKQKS
protocol.text: flow cytometry, CHO transfectants, anti-human IgG

Please give the measured EC50 (read off the curve) for this binder: Antibody 96 (antibody, V domains shown) VH: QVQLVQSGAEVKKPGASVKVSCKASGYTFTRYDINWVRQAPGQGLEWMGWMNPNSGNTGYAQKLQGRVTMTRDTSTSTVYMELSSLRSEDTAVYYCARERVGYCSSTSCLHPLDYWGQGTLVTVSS VL: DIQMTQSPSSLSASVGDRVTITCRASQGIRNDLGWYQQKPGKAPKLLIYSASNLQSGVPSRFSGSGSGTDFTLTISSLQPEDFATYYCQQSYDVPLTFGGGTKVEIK
~0.6 µg/mL

Next entry: Antibody 84 (antibody, V domains shown) VH: QVQLVQSGAEVKKPGASVKVSCKASGYTFTSYYMHWVRQAPGQGLEWMGWINPNSGNAGFAQKFQGRVTMTRDTSTSTVYMELSSLRSEDTAVYYCARGPVYSYGPFDYWGQGTLVTVSS VL: DIQMTQSPSSLSASVGDRVTITCRASQGISTYLAWYQQKPGKAPKLLIYAASTLQSGVPSRFSGSGSGTDFTLTISSLQPEDFATYYCQQSHSAPITFGQGTKVEIK
~0.2 µg/mL

Next entry: Antibody 64 (antibody, V domains shown) VH: QVQLVQSGAEVKKPGASVKVSCKASGYTFTSYYMHWVRQAPGQGLEWMGRINPNSGGTKYAQKFQGRVTMTRDTSTSTVYMELSSLRSEDTAVYYCARLGSAYFDLWGRGTLVTVSS VL: DIQMTQSPSSLSASVGDRVTITCRASQSVDTWLAWYQQKPGKAPKLLIYEASTLESGVPSRFSGSGSGTDFTLTISSLQPEDFATYYCQQANSFPITFGQGTRLEIK
~0.4 µg/mL

Next entry: Antibody 82 (antibody, V domains shown) VH: QVQLVQSGAEVKKPGASVKVSCKASGHTFNNNYIHWVRQAPGQGLEWMGIINPSGGSTSYAQKFQGRVTMTRDTSTSTVYMELSSLRSEDTAVYYCARQIQDYGYYYYGMDVWGQGTTVTVSS VL: EIVMTQSPATLSVSPGERATLSCRASQSVSKYLAWYQQKPGQAPRLLIYAISARAAGIPARFSGSGSGTEFTLTISSLQSEDFAVYYCQQYYSSPPTFGQGTKVEIK
~0.7 µg/mL

Next entry: Antibody 80 (antibody, V domains shown) VH: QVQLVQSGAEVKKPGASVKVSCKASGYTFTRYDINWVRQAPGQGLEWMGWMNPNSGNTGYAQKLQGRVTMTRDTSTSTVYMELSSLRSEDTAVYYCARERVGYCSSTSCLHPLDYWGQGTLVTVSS VL: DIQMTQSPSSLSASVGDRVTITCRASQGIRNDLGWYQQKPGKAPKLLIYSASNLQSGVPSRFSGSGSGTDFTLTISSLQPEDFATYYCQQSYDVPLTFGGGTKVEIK
~0.7 µg/mL

Next entry: Antibody 79 (antibody, V domains shown) VH: QVQLVQSGAEVKKPGASVKVSCKASGYTFTSYYMHWVRQAPGQGLEWMGWMNPNSGNTGYAQKFQGRVTMTRDTSTSTVYMELSSLRSEDTAVYYCARDQMYSSYGMDVWGQGTTVTVSS VL: DIQMTQSPSSLSASVGDRVTITCRASESITNWLAWYQQKPGKAPKLLIYKASSLESGVPSRFSGSGSGTDFTLTISSLQPEDFATYYCQQSYGTPYTFGQGTKVEIK
~0.5 µg/mL

Next entry: Antibody 54 (antibody, V domains shown) VH: QVQLVQSGAEVKKPGASVKVSCKASGYSFSDYYMHWVRQAPGQGLEWMGWMSPNSGNTGYAQKFQGRVTMTRDTSTSTVYMELSSLRSEDTAVYYCARQREEYGHYYYGMDVWGQGTMVTVSS VL: EIVMTQSPATLSVSPGERATLSCRASQSLGSTYLAWYQQKPGQAPRLLIYGASTRATGIPARFSGSGSGTEFTLTISSLQSEDFAVYYCQQYYSSPPTFGQGTKVEIK
~0.8 µg/mL
